MEASUREMENT_KIND: melting point

CN(Cc1cc2c3c(c1)c(=O)c(C(=O)NCc1ccc(Cl)cc1)cn3CC(=O)N2CCO)C[C@@H](O)c1ccco1 : 166 to 167 °C
Cc1cc2nc3[nH]c4ccc(Br)cc4c3nc2cc1C : 319 to 322 °C
CCc1nc(OC)c(NC(=O)N2CCN(c3cc(OC)c(OC)c(OC)c3)CC2)cc1C(=O)Nc1cc(CO)cc(Nc2c3ccccc3nc3ccccc23)c1 : 190 to 192 °C

Prompt: Find the recorded melting point belonging to CC(=O)NC1CCC(=O)c2ccccc21 (configuration not stated) and report it.
Response: 128 to 130 °C

Prompt: Find the recorded melting point belonging to O=C(N[C@H]1CCCNC1=O)c1ccccc1F and report it.
Response: 166 to 168 °C

Prompt: Find the recorded melting point belonging to Cc1c(CO)oc2ccc(Cl)cc12 and report it.
Response: 112 to 113 °C

Prompt: Find the recorded melting point belonging to CCn1c(CCO)nc(C2CC2)c1Sc1cc(C#N)cc(C#N)c1 and report it.
Response: 122 to 124 °C

Prompt: Find the recorded melting point belonging to CNC(=O)ON=C1N=C(C2CCCCC2)C(C)(C)S1 and report it.
Response: 158 to 160 °C
